Experiment: qHTS profiling for inhibitors of Plasmodium falciparum (DD2) proliferation (AID 743323)
Details: lower = more inhibition; at 28.7 µM (top of the series) unless noted
Method: Plasmodium falciparum is a virulent malarial parasite that kills 1-2 million people worldwide each year. […] Because mature erythrocytes lack DNA, only Plasmodium-derived DNA is detected. The SYBR Green viability assay was adapted from a method described previously (Plouffe et al., 2008). […] The following morning, fluorescence intensity at 485(14) nm excitation and 535(25) nm emission wavelengths was measured on an EnVision (Perkin Elmer) plate reader. […]
Hi there, I'd appreciate the recorded activity, percent of control for every entry that follows.
Give bare numbers, in %.

Some solved cases for reference:
{"cpd.smiles": "C=C[C@@H]1CN2CC[C@@H]1C[C@H]2[C@H](O)c1ccnc2ccc(OC)cc12", "val": 1.73}
{"cpd.smiles": "CN1CC(=O)N/C1=N/C(=O)Nc1cccc(Cl)c1", "val": 106}
{"cpd.smiles": "C=CCc1cccc(/C=N/NC(=O)CN2CCN(Cc3ccccc3)CC2)c1O", "val": 11.8}

// next item, activity, percent of control requested
Q) Name the reported activity, percent of control value associated with the compound C=CC(C)=C[C@@]1(C)SC(=O)C(C)=C1O
A) 98.3

----------
Target: Glutathione peroxidase 1 (Homo sapiens) (UniProt P07203)
Sequence (P07203 whole entry, looked up): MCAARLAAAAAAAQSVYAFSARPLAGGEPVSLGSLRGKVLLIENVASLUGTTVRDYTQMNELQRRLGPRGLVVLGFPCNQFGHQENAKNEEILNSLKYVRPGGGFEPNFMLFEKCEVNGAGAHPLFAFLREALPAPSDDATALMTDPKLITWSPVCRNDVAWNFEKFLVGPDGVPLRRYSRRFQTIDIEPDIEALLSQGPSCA
Experiment: Primary qHTS Assay for Inhibitors of Recombinant Selenoprotein Glutathione Peroxidase 1 (GPX1) (AID 1845191); note: nearly all actives have a fitted effect of over 65% in size
Details: recombinant GPX1, GR-coupled NADPH fluorescence, 15 min; series mostly up to 48.8 µM
Inconclusive results are not listed. Calls of active or inactive are those of the source. The call rests on the fitted dose curve; in most records, active means well fitted inhibition curve with a large enough effect; inconclusive means small, poorly fitted or top-dose-only effect; inactive means flat fitted curve, though single readings scatter.
Outcomes you can answer with include only these: y (active), n (inactive)

Below, 8 compounds whose answers are already recorded.
{"compound": "CCOC(=O)N1CCN(/[N+]([O-])=N/Oc2ccc([N+](=O)[O-])cc2[N+](=O)[O-])CC1", "assigned.class": "n"}
{"compound": "COc1cc(SC)ccc1C(=O)N1CCC(Cc2ccccc2)CC1", "assigned.class": "n"}
{"compound": "CCCCCCCCCCCCCCCCCC(=O)O", "assigned.class": "n"}
{"compound": "CN1C2CC(OC(=O)[C@H](CO)c3ccccc3)CC1C1OC12 (stereo partly drawn)", "assigned.class": "n"}
{"compound": "CCC1C(=O)OCC1Cc1cncn1C (stereo not drawn)", "assigned.class": "n"}
{"compound": "O=C(NOCC1CC1)c1cc(Br)c(F)c(F)c1Nc1ccc(I)cc1Cl", "assigned.class": "n"}
{"compound": "CC(C)(C=O)Cc1cc(C(C)(C)C)c(O)c(C(C)(C)C)c1", "assigned.class": "n"}
{"compound": "N[C@H](CCCP(=O)(O)O)C(=O)O", "assigned.class": "n"}

Q) Kindly provide the recorded test outcome for the following compound: O=C1NC(O)=NC1(c1ccccc1)c1ccccc1
A) n

Q) Record lookup: outcome of this test for COc1cc(C(O)CO)ccc1OS(=O)(=O)O (stereo not drawn) ?
A) n

Q) Hello, I am checking results. What call was entered for O=C(Nc1ccccc1)c1cc([N+](=O)[O-])ccc1Cl ?
A) n

----------
Target: Muscarinic acetylcholine receptor M1 (Rattus norvegicus) (UniProt P08482)
Sequence (P08482 whole entry, looked up): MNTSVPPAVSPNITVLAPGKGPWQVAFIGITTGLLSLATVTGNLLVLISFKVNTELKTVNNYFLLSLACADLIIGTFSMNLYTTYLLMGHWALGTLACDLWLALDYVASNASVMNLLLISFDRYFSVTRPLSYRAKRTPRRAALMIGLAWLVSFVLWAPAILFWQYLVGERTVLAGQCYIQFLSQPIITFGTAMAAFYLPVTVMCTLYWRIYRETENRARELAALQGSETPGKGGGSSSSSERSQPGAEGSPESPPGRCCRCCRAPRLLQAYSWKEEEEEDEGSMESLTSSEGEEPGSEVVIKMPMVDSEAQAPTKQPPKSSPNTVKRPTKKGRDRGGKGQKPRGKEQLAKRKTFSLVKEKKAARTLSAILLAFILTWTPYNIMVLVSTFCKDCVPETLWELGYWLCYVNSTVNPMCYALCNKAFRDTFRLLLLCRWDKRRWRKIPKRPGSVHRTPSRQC
Assay: qHTS Assay for Antagonists of Acetylcholine Muscarinic M1 Receptor: Kinetic Measurement of Intracellular Calcium Response (AID 943); note: nearly all actives have a fitted effect of over 75% in size
Settings: M1-expressing cells, kinetic intracellular calcium fluorescence; series mostly up to 35.3 µM
Results filed as inconclusive are left out. The source made the active and inactive calls. Calls come from the whole dose curve; as a rule, active = well fitted inhibition curve with a large enough effect; inconclusive = small, poorly fitted or top-dose-only effect; inactive = no such curve, though single readings can be large or run the other way.
Classes to choose from: label 1 = active, label 0 = inactive

Use the examples below as a reference point.
{"cpd.smiles": "O=C(c1cc(O)c(O)c([N+](=O)[O-])c1)c1ccccc1F", "assigned.class": "label 0"}
{"cpd.smiles": "O=c1[nH]c2cc([N+](=O)[O-])c([N+](=O)[O-])cc2[nH]c1=O", "assigned.class": "label 0"}
{"cpd.smiles": "O=c1[nH]c2cc(Cl)c(Cl)cc2[nH]c1=O", "assigned.class": "label 0"}
{"cpd.smiles": "CCCN(CC1CC1)c1nc(C)nc(Nc2c(Cl)cc(Cl)cc2Cl)c1Cl", "assigned.class": "label 0"}
{"cpd.smiles": "O=C(Nc1cccc(C(=O)Nc2ccc(S(=O)(=O)O)c3cc(S(=O)(=O)O)cc(S(=O)(=O)O)c23)c1)Nc1cccc(C(=O)Nc2ccc(S(=O)(=O)O)c3cc(S(=O)(=O)O)cc(S(=O)(=O)O)c23)c1", "assigned.class": "label 0"}
{"cpd.smiles": "Oc1cc2c(cc1O)CN(C(=S)NCCc1ccc(Cl)cc1)CCC2", "assigned.class": "label 0"}
{"cpd.smiles": "CN1CCc2cc(NC(=O)Nc3cccnc3)ccc21", "assigned.class": "label 0"}
{"cpd.smiles": "N#C/C(=C\\c1ccc(O)c(O)c1)C(=O)c1ccc(O)c(O)c1", "assigned.class": "label 0"}
{"cpd.smiles": "N.N.O=C(O)C1(C(=O)O)CCC1.[Pt]", "assigned.class": "label 0"}

Next:
Q) Outcome? COc1ccccc1N1CCN(CCCCNS(=O)(=O)c2cccc3c(N(C)C)cccc23)CC1
A) label 1

----------
Assay: S16 Schwann cell PMP22 intronic element firefly luciferase assay (AID 624032); note: nearly all actives have a fitted effect of over 30% in size; note: potency is the fitted concentration of half-maximal effect
Settings: S16 rat Schwann cells, PMP22 element FLuc, 24 h; series mostly up to 57.5 µM
Results filed as inconclusive are left out. Active and inactive are the calls of the source. The call rests on the fitted dose curve; in most records, active means well fitted inhibition curve with a large enough effect; inconclusive means small, poorly fitted or top-dose-only effect; inactive means no such curve, though single readings can be large or run the other way.
measurement.name: Potency

Example entries begin here.
{"molecule": "c1ccc2sc(SN3CCOCC3)nc2c1", "val": "inactive"}
{"molecule": "C=CCN1C(=O)C(CC(C)C)NC1=S (stereo not given)", "val": "inactive"}
{"molecule": "CC(C(=O)O)c1ccc2c(c1)[nH]c1ccc(Cl)cc12 (stereo not given)", "val": "inactive"}
{"molecule": "CCCCCCCCCCCC(=O)[O][Sn]([CH2]CCC)([CH2]CCC)[O]C(=O)CCCCCCCCCCC", "val": "9.07 µM (active)"}

Okay, now this molecule:
Q) Dear colleague, I am looking for the recorded Potency of the following molecule: CC1(C)S[C@@H]2[C@H](NC(=O)[C@H](NC(=O)N3CCN(S(C)(=O)=O)C3=O)c3ccccc3)C(=O)N2[C@H]1C(=O)O
A) inactive

----------
Test system: CP211
Experiment: qHTS profiling for inhibitors of Plasmodium falciparum proliferation (AID 504749);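 note: 0% = DMSO vehicle and full inhibition = artemisinin control; nearly all actives have a fitted effect of over 60% in size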
Details: P. falciparum in erythrocytes, SYBR Green DNA, 72 h; series mostly up to 28.7 µM
Results filed as inconclusive are left out. Calls of active or inactive are those of the source. Calls come from the whole dose curve; as a rule, active = well fitted inhibition curve with a large enough effect; inconclusive = small, poorly fitted or top-dose-only effect; inactive = flat fitted curve, though single readings scatter.
measurement.name: outcome

Some solved entries appear below for comparison.
{"compound": "CCC1C(=O)OCC1Cc1cncn1C (stereo not given)", "measurement.name": "outcome", "val": "inactive"}
{"compound": "N=c1ccn2c(n1)O[C@H]1[C@H](O)[C@@H](CO)O[C@H]12", "measurement.name": "outcome", "val": "inactive"}
{"compound": "COc1cc2c3cc1Oc1cc(ccc1O)C[C@@H]1c4c(cc(OC)c(O)c4Oc4ccc(cc4)C[C@@H]3N(C)CC2)CC[N+]1(C)C", "measurement.name": "outcome", "val": "inactive"}
{"compound": "O=C1CN(/N=C/c2ccc(-c3ccc([N+](=O)[O-])cc3)o2)C(=O)N1", "measurement.name": "outcome", "val": "inactive"}
{"compound": "CCCCCCOc1ccccc1C(N)=O", "measurement.name": "outcome", "val": "inactive"}

Give outcome for all compounds that follow.
1. C#C[C@]1(O)CC[C@H]2[C@@H]3CCc4cc(O)ccc4[C@H]3CC[C@@]21C
2. COc1cc(/C=C/C(=O)N2CCN(CC(=O)N3CCCC3)CC2)cc(OC)c1OC

A)
["inactive", "inactive"]

// for each compound below, give its outcome
1. Nc1cc(-c2ccncc2)c[nH]c1=O
2. CCCCCC[C@@H](O)C/C=C\CCCCCCCC(=O)O

A)
1. inactive
2. inactive

Would you mind giving outcome for every compound in the list below?
1. C=CCN1C(=O)C(CC(C)C)NC1=S (stereo not given)
2. CCCCC[C@H](O)/C=C/[C@@H]1[C@@H](C/C=C\CCCC(=O)O)[C@@H](O)C[C@H]1O
3. O=C(O)[C@H](O)[C@@H](O)[C@H](O)[C@H](O)CO
4. Nc1c(CC(=O)O)cccc1C(=O)c1ccc(Br)cc1
5. Oc1c(Br)cc(Br)c2cccnc12

A)
inactive
inactive
inactive
inactive
inactive

I'm hoping you can list outcome for every compound here, please.
1. CC1OC1P(=O)(O)O (stereo not given)
2. O=C(O)Cc1ccc(-c2ccccc2)cc1
3. Cc1ccc(C(=O)c2ccc(CC(=O)O)n2C)cc1
4. c1ccc2sc(SSc3nc4ccccc4s3)nc2c1
5. COc1ccc(/C=C/C(=O)Nc2ccccc2C(=O)O)cc1OC
6. Cc1c(Nc2ncccc2C(=O)O)cccc1C(F)(F)F

A)
inactive
inactive
inactive
inactive
inactive
inactive

----------
Assay: Cell Viability - LYMP2-023 (AID 975);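 note: cells exposed to compound for 24 hours at 37 °C; nearly all actives have a fitted effect of over 55% in size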
Settings: LYMP2-023 lymphoblastoid cell viability; series mostly up to 92.2 µM
Records with an inconclusive call do not appear. Active and inactive are the calls of the source. Calls follow the shape of the dose curve; as a rule, active = well fitted cell-killing curve with a large enough effect; inconclusive = small, poorly fitted or top-dose-only effect; inactive = flat fitted curve, though single readings scatter.
Thanks in advance; please answer with one of these: true for active, false for inactive

Here's what some known entries look like.
{"compound": "Nc1ccc(O)c(C(=O)O)c1", "assigned.class": "false"}
{"compound": "CN(C)CCC(c1ccc(Cl)cc1)c1ccccn1 (stereo not drawn)", "assigned.class": "false"}
{"compound": "CC(C)NCC(O)COc1cccc2ccccc12 (stereo not drawn)", "assigned.class": "false"}
{"compound": "NCCO", "assigned.class": "false"}
{"compound": "O=C(O)/C=C\\C(=O)O", "assigned.class": "false"}
{"compound": "CN1CCC[C@H]1c1cccnc1", "assigned.class": "false"}

Q) Called result for CCCCCCCCCCCCCCCCCC(=O)O
A) false

Q) Outcome logged for Nc1nc2ccc([N+](=O)[O-])cc2s1 in this assay:
A) false

Q) What call does the record list for N=C1N=C(N)c2cc3ccccc3cc21 ?
A) true

Q) Could you please tell me the result logged for S=c1[nH]c2ccccc2s1 in this assay?
A) false

Q) Identify the outcome logged in this assay for the compound shown: c1ccc2sc(SSc3nc4ccccc4s3)nc2c1
A) false

Q) Recorded test call requested for Oc1ccccc1O
A) false

Q) What is the recorded call for this compound in the test? CN(C)c1ccc(C(=C2C=CC(=[N+](C)C)C=C2)c2ccccc2)cc1
A) true
